Test system: 282377-053-R-J1-PDC complex spheroid viability
assay text: Anticancer human tumor 282377-053-R-J1-PDC patient-derived colon adenocarcinoma cell line growth inhibition [POLQ]
test conditions: second compound 0.0316 µM; first compound 0.1 µM; stronger effect = lower value
Experimental: Multicellular complex tumor spheroid response to Polymerase (POL) inhibitors (novobiocin, ART-558, RP6685) in combination with a variety of drugs and investigational agents in selected tumor cell lines The POL inhibitors (novobiocin, ART-558, and RP6685) were evaluated both individually and in combination with standard of care and investigational anticancer small molecules within a complex spheroid model of solid tumors. . […]
Labelling: viability, T/C reported below 90% becomes 1.0; at or above becomes 0.0.

[
  {
    "compound": "O=C(Nc1ccc(O)c(NS(=O)(=O)c2ccc(F)cc2)c1)c1ccc(-c2ccccc2)cc1 + Nc1ccc(C#CCN(C(=O)Cc2ncc(C(F)(F)F)cc2C(F)(F)F)c2ccc(F)cc2)nn1",
    "assigned category": 0.0
  },
  {
    "compound": "O=C(c1cc(Cc2n[nH]c(=O)c3ccccc23)ccc1F)N1CCN(C(=O)C2CC2)CC1 + Nc1ccc(C#CCN(C(=O)Cc2ncc(C(F)(F)F)cc2C(F)(F)F)c2ccc(F)cc2)nn1",
    "assigned category": 0.0
  },
  {
    "compound": "CCc1c2c(nc3ccc(O)cc13)-c1cc3c(c(=O)n1C2)COC(=O)[C@]3(O)CC + COC1C(OC(N)=O)C(O)C(Oc2ccc3c(O)c(NC(=O)c4ccc(O)c(CC=C(C)C)c4)c(=O)oc3c2C)OC1(C)C",
    "assigned category": 1.0
  },
  {
    "compound": "CCCS(=O)(=O)Nc1ccc(F)c(C(=O)c2c[nH]c3ncc(-c4ccc(Cl)cc4)cc23)c1F + Cc1cccc(N(C)C(=O)C2C(O)CCN2c2nc(C)cc(C(F)(F)F)c2C#N)c1",
    "assigned category": 1.0
  },
  {
    "compound": "CC1COCCN1c1cc(C2(O)CC3CCC(C2)O3)c2cnn(-c3ccn[nH]3)c2n1 (stereo not given) + Cc1cccc(N(C)C(=O)C2C(O)CCN2c2nc(C)cc(C(F)(F)F)c2C#N)c1",
    "assigned category": 1.0
  },
  {
    "compound": "COc1ccc([C@@H](O)c2cc(-c3ncnc4cc(N5CCOCC5)ccc34)c(F)cc2Cl)nn1 + Cc1cccc(N(C)C(=O)C2C(O)CCN2c2nc(C)cc(C(F)(F)F)c2C#N)c1",
    "assigned category": 0.0
  },
  {
    "compound": "CC1COCCN1c1cc(C2(O)CC3CCC(C2)O3)c2cnn(-c3ccn[nH]3)c2n1 (stereo not given) + Nc1ccc(C#CCN(C(=O)Cc2ncc(C(F)(F)F)cc2C(F)(F)F)c2ccc(F)cc2)nn1",
    "assigned category": 1.0
  },
  {
    "compound": "C#Cc1c(F)ccc2cc(O)cc(-c3ncc4c(N5CC6CCC(C5)N6)nc(OCC56CCCN5CC(F)C6)nc4c3F)c12 (stereo not given) + Nc1ccc(C#CCN(C(=O)Cc2ncc(C(F)(F)F)cc2C(F)(F)F)c2ccc(F)cc2)nn1",
    "assigned category": 0.0
  },
  {
    "compound": "COc1cc2cc(C(=O)CCC(=O)O)sc2cc1OC + COC1C(OC(N)=O)C(O)C(Oc2ccc3c(O)c(NC(=O)c4ccc(O)c(CC=C(C)C)c4)c(=O)oc3c2C)OC1(C)C",
    "assigned category": 0.0
  },
  {
    "compound": "CC1COCCN1c1cc(-c2ccnn2C)c2ccnc(-c3ccn[nH]3)c2n1 (stereo not given) + Nc1ccc(C#CCN(C(=O)Cc2ncc(C(F)(F)F)cc2C(F)(F)F)c2ccc(F)cc2)nn1",
    "assigned category": 1.0
  },
  {
    "compound": "O=c1[nH]cc(F)c(=O)[nH]1 + Cc1cccc(N(C)C(=O)C2C(O)CCN2c2nc(C)cc(C(F)(F)F)c2C#N)c1",
    "assigned category": 0.0
  },
  {
    "compound": "COc1cc(C2c3cc4c(cc3C(OC3OC5COC(C)OC5C(O)C3O)C3COC(=O)C23)OCO4)cc(OC)c1O (stereo not given) + Cc1cccc(N(C)C(=O)C2C(O)CCN2c2nc(C)cc(C(F)(F)F)c2C#N)c1",
    "assigned category": 0.0
  },
  {
    "compound": "COc1cccc(OCCCN)c1-c1cc(Nc2cnc(C#N)cn2)n[nH]1 + Nc1ccc(C#CCN(C(=O)Cc2ncc(C(F)(F)F)cc2C(F)(F)F)c2ccc(F)cc2)nn1",
    "assigned category": 1.0
  },
  {
    "compound": "COc1cccc2c1C(=O)c1c(O)c3c(c(O)c1C2=O)CC(O)(C(=O)CO)CC3OC1CC(N)C(O)C(C)O1 (stereo not given) + COC1C(OC(N)=O)C(O)C(Oc2ccc3c(O)c(NC(=O)c4ccc(O)c(CC=C(C)C)c4)c(=O)oc3c2C)OC1(C)C",
    "assigned category": 1.0
  },
  {
    "compound": "CC[C@@]1(O)C(=O)OCc2c1cc1n(c2=O)Cc2cc3c(CN(C)C)c(O)ccc3nc2-1 + COC1C(OC(N)=O)C(O)C(Oc2ccc3c(O)c(NC(=O)c4ccc(O)c(CC=C(C)C)c4)c(=O)oc3c2C)OC1(C)C",
    "assigned category": 1.0
  },
  {
    "compound": "COc1cc(C2c3cc4c(cc3C(OC3OC5COC(C)OC5C(O)C3O)C3COC(=O)C23)OCO4)cc(OC)c1O (stereo not given) + COC1C(OC(N)=O)C(O)C(Oc2ccc3c(O)c(NC(=O)c4ccc(O)c(CC=C(C)C)c4)c(=O)oc3c2C)OC1(C)C",
    "assigned category": 0.0
  },
  {
    "compound": "CC1COCCN1c1cc(-c2ccnn2C)c2ccnc(-c3ccn[nH]3)c2n1 (stereo not given) + COC1C(OC(N)=O)C(O)C(Oc2ccc3c(O)c(NC(=O)c4ccc(O)c(CC=C(C)C)c4)c(=O)oc3c2C)OC1(C)C",
    "assigned category": 0.0
  }
]

* * *

System: 282377-053-R-J1-PDC complex spheroid viability
assay text: Anticancer human tumor 282377-053-R-J1-PDC cell line growth inhibition [POLQ]; active = viability on the fitted dose curve at most 10% of control; inactive = the rest;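 note: spheroids exposed to compounds for seven days; 100% = DMSO vehicle control viability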
test conditions: second compound 0.0316 µM; first compound 3.16 µM
Outcome codes: active, inactive

[
  {
    "compound": "CCc1cc2c(N3CCc4c(cc(Cn5ccnc5)cc4-c4cn(C)nc4C(F)(F)F)C3=O)cc(C)nc2c(OC)n1 + COC1C(OC(N)=O)C(O)C(Oc2ccc3c(O)c(NC(=O)c4ccc(O)c(CC=C(C)C)c4)c(=O)oc3c2C)OC1(C)C",
    "assigned category": "inactive"
  },
  {
    "compound": "CCCS(=O)(=O)Nc1ccc(F)c(C(=O)c2c[nH]c3ncc(-c4ccc(Cl)cc4)cc23)c1F + COC1C(OC(N)=O)C(O)C(Oc2ccc3c(O)c(NC(=O)c4ccc(O)c(CC=C(C)C)c4)c(=O)oc3c2C)OC1(C)C",
    "assigned category": "inactive"
  },
  {
    "compound": "CC(C)n1c(=O)n(C)c2cnc3cc(F)c(-c4ccc(OCCCN5CCCCC5)nc4)cc3c21 + Cc1cccc(N(C)C(=O)C2C(O)CCN2c2nc(C)cc(C(F)(F)F)c2C#N)c1",
    "assigned category": "inactive"
  },
  {
    "compound": "CCc1cc2c(N3CCc4c(cc(Cn5ccnc5)cc4-c4cn(C)nc4C(F)(F)F)C3=O)ccnc2c(OC)n1 + Cc1cccc(N(C)C(=O)C2C(O)CCN2c2nc(C)cc(C(F)(F)F)c2C#N)c1",
    "assigned category": "inactive"
  },
  {
    "compound": "CC1COCCN1c1cc(C2(O)CC3CCC(C2)O3)c2cnn(-c3ccn[nH]3)c2n1 (stereo not drawn) + COC1C(OC(N)=O)C(O)C(Oc2ccc3c(O)c(NC(=O)c4ccc(O)c(CC=C(C)C)c4)c(=O)oc3c2C)OC1(C)C",
    "assigned category": "inactive"
  },
  {
    "compound": "COc1cccc2c1C(=O)c1c(O)c3c(c(O)c1C2=O)CC(O)(C(=O)CO)CC3OC1CC(N)C(O)C(C)O1 (stereo not drawn) + Nc1ccc(C#CCN(C(=O)Cc2ncc(C(F)(F)F)cc2C(F)(F)F)c2ccc(F)cc2)nn1",
    "assigned category": "inactive"
  },
  {
    "compound": "CCCS(=O)(=O)Nc1ccc(F)c(C(=O)c2c[nH]c3ncc(-c4ccc(Cl)cc4)cc23)c1F + Cc1cccc(N(C)C(=O)C2C(O)CCN2c2nc(C)cc(C(F)(F)F)c2C#N)c1",
    "assigned category": "inactive"
  },
  {
    "compound": "CCCS(=O)(=O)Nc1ccc(F)c(C(=O)c2c[nH]c3ncc(-c4ccc(Cl)cc4)cc23)c1F + Nc1ccc(C#CCN(C(=O)Cc2ncc(C(F)(F)F)cc2C(F)(F)F)c2ccc(F)cc2)nn1",
    "assigned category": "inactive"
  },
  {
    "compound": "C#Cc1c(F)ccc2cc(O)cc(-c3ncc4c(N5CC6CCC(C5)N6)nc(OCC56CCCN5CC(F)C6)nc4c3F)c12 (stereo not drawn) + Nc1ccc(C#CCN(C(=O)Cc2ncc(C(F)(F)F)cc2C(F)(F)F)c2ccc(F)cc2)nn1",
    "assigned category": "inactive"
  },
  {
    "compound": "COc1ccc([C@@H](O)c2cc(-c3ncnc4cc(N5CCOCC5)ccc34)c(F)cc2Cl)nn1 + COC1C(OC(N)=O)C(O)C(Oc2ccc3c(O)c(NC(=O)c4ccc(O)c(CC=C(C)C)c4)c(=O)oc3c2C)OC1(C)C",
    "assigned category": "inactive"
  },
  {
    "compound": "Nc1ccn(C2OC(CO)C(O)C2(F)F)c(=O)n1 (stereo not drawn) + Cc1cccc(N(C)C(=O)C2C(O)CCN2c2nc(C)cc(C(F)(F)F)c2C#N)c1",
    "assigned category": "inactive"
  },
  {
    "compound": "CNCc1ccc(-c2[nH]c3cc(F)cc4c3c2CCNC4=O)cc1 + Nc1ccc(C#CCN(C(=O)Cc2ncc(C(F)(F)F)cc2C(F)(F)F)c2ccc(F)cc2)nn1",
    "assigned category": "inactive"
  },
  {
    "compound": "COc1cccc2c1C(=O)c1c(O)c3c(c(O)c1C2=O)CC(O)(C(=O)CO)CC3OC1CC(N)C(O)C(C)O1 (stereo not drawn) + COC1C(OC(N)=O)C(O)C(Oc2ccc3c(O)c(NC(=O)c4ccc(O)c(CC=C(C)C)c4)c(=O)oc3c2C)OC1(C)C",
    "assigned category": "active"
  },
  {
    "compound": "CC1COCCN1c1cc(C2(O)CC3CCC(C2)O3)c2cnn(-c3ccn[nH]3)c2n1 (stereo not drawn) + Nc1ccc(C#CCN(C(=O)Cc2ncc(C(F)(F)F)cc2C(F)(F)F)c2ccc(F)cc2)nn1",
    "assigned category": "inactive"
  },
  {
    "compound": "CCc1cc2c(N3CCc4c(cc(Cn5ccnc5)cc4-c4cn(C)nc4C(F)(F)F)C3=O)cc(C)nc2c(OC)n1 + Cc1cccc(N(C)C(=O)C2C(O)CCN2c2nc(C)cc(C(F)(F)F)c2C#N)c1",
    "assigned category": "inactive"
  },
  {
    "compound": "O=c1[nH]cc(F)c(=O)[nH]1 + Nc1ccc(C#CCN(C(=O)Cc2ncc(C(F)(F)F)cc2C(F)(F)F)c2ccc(F)cc2)nn1",
    "assigned category": "inactive"
  },
  {
    "compound": "O=C(Nc1ccc(O)c(NS(=O)(=O)c2ccc(F)cc2)c1)c1ccc(-c2ccccc2)cc1 + Nc1ccc(C#CCN(C(=O)Cc2ncc(C(F)(F)F)cc2C(F)(F)F)c2ccc(F)cc2)nn1",
    "assigned category": "inactive"
  },
  {
    "compound": "COc1cc(C2c3cc4c(cc3C(OC3OC5COC(C)OC5C(O)C3O)C3COC(=O)C23)OCO4)cc(OC)c1O (stereo not drawn) + Cc1cccc(N(C)C(=O)C2C(O)CCN2c2nc(C)cc(C(F)(F)F)c2C#N)c1",
    "assigned category": "inactive"
  }
]
